- procedureText: amyloid nucleation score (Sup35N fusion, yeast selection) (log enrichment); library NNK2; higher = more nucleation; inactive = no reads after selection;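 also: zero at mode of non-aggregating sequences after 7 days selection at 30°C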
Lab note: anything with amyloid nucleation score at or over -0.4 counts as Criterion met; the rest go in Criterion not met.

Q) Decide: is the reported value of amyloid nucleation score for IRTLSFMIANSAL equal to or greater than -0.4?
A) Criterion not met

New cases:
Q) Is the recorded value of amyloid nucleation score equal to or greater than -0.4 for this substance? VSIPLIISTCASLSVCSMTW
A) Criterion met

Q) Determine whether this substance has amyloid nucleation score no lower than -0.4: SGYVLNAELNAASLLMCGIG
A) Criterion met

Q) Identify whether the reported amyloid nucleation score of the following substance is -0.4 or greater: FRDQGIFIHLWS
A) Criterion met

Q) In plain terms: is recorded amyloid nucleation score at least -0.4 for VLLLGVSVRHFKGLGVPTKR ?
A) Criterion met

Q) For this substance, is measured amyloid nucleation score -0.4 or higher? SVWGKD
A) Criterion met

Q) Is amyloid nucleation score for DMSIRRRI at or above -0.4?
A) Criterion not met

Q) Does LDIITGLSSISGTHIFGSSP have a reported amyloid nucleation score of at least -0.4?
A) Criterion not met

Q) Answer whether amyloid nucleation score of LISKSGSFMNMLGTGDRAR is greater than or equal to -0.4.
A) Criterion met

Q) Check the entry PVLIVLYDIGSCKERKE : does amyloid nucleation score equal or exceed -0.4?
A) Criterion met

###

- procedureText: amyloid nucleation score (Sup35N fusion, yeast selection) (log enrichment); library NNK1; higher = more nucleation; inactive = no reads after selection
metricName: amyloid nucleation score

Q) Suppose we examine the sequence HYTLIGIY ; what amyloid nucleation score value has been reported?
A) inactive

Q) // amyloid nucleation score lookup, key: CDIIYFACGDREV
A) inactive

Q) Given the sequence SSRLVSFFGHSNTVLRMFNW , what is its reported amyloid nucleation score?
A) inactive

###

- procedureText: amyloid nucleation score (Sup35N fusion, yeast selection) (log enrichment); library NNK1; higher = more nucleation; inactive = no reads after selection
metricName: amyloid nucleation score

Q) Item NILGIAHTIGCLLLTFCCTL has what recorded amyloid nucleation score?
A) inactive

Q) Fill blank: measured amyloid nucleation score of the sequence YASVVGYLPGCTNINAMKNR is ____.
A) inactive

Q) Given the entry LYGGNSRFRLSSYRYGMFWN , report its measured amyloid nucleation score.
A) inactive

###

- procedureText: amyloid nucleation score (Sup35N fusion, yeast selection) (log enrichment); library NNK1; higher = more nucleation; inactive = no reads after selection
metricName: amyloid nucleation score

Q) // returns reported amyloid nucleation score for input IAPMSRRFEGMACSFTDEEA
A) inactive

Q) Quick check: amyloid nucleation score of FCVTNPWS ?
A) 0.308

Q) Please give the measured amyloid nucleation score for this sequence: EVITNTNGIVWSFDELYSVM
A) inactive

Q) Value lookup for amyloid nucleation score; key = PAHKLILFPPCCVGVWYSER
A) inactive

###

- procedureText: amyloid nucleation score (Sup35N fusion, yeast selection) (log enrichment); library NNK1; higher = more nucleation; inactive = no reads after selection
metricName: amyloid nucleation score

Q) What value of measured amyloid nucleation score is listed for MVRGQVNPNSFNARWY ?
A) inactive

Q) Looking for the measured amyloid nucleation score of CSDSVGSIYSHVRSGGLE , can you help?
A) inactive

Q) What value of amyloid nucleation score has been recorded for this entry: YLQIWRLSRRSILL
A) inactive

###

# key: entry, value: amyloid nucleation score
- procedureText: amyloid nucleation score (Sup35N fusion, yeast selection) (log enrichment); library NNK2; higher = more nucleation; inactive = no reads after selection
Lab note: record just the number, no unit beside it.

Q) Could you tell me which amyloid nucleation score is on file for SYNRSKCNSTRLMLKSKTAH ?
A) 1.51

Q) Given CCAGWYSGEEGRMGSRL , state its recorded amyloid nucleation score.
A) 0.511

Q) Dear colleague, I am looking for the recorded amyloid nucleation score of the following substance: TYVLWSFTKYRPP
A) 1.02

Q) Look up amyloid nucleation score: CWFHGLWIRGVDNSSVYWMD
A) -0.466

Q) Look at this substance and give its reported amyloid nucleation score. VVKFYWCIVQCCTWNGMKSH
A) 8.36

Next:
Q) Look up amyloid nucleation score: FTDRDLGNLTYDDRFDICNY
A) -1.75

Q) Name the reported amyloid nucleation score value associated with the substance TSKWQRNLFGDGSLKEFTGE
A) -0.712

Q) What value of amyloid nucleation score has been recorded for this entry: GFVLILTAIYVVGCINICAM
A) 5.66

Q) # input substance: TLVLTEFDKGIDIVL ; wanted: its amyloid nucleation score
A) -0.565

Q) Name the recorded amyloid nucleation score for YQNIFLRTAALRAGSAD .
A) 0.765

Q) // amyloid nucleation score lookup, key: TYPRDYVVRSEI
A) 0.74

Q) Which amyloid nucleation score is listed for FASSEVYTGVSYIIHVSVYS ?
A) -0.714

Q) Can you look up the measured amyloid nucleation score of TYGGEV for me?
A) 0.251

Q) Item VGPFSDH has what recorded amyloid nucleation score?
A) -0.472

###

- procedureText: amyloid nucleation score (Sup35N fusion, yeast selection) (log enrichment); library NNK1; higher = more nucleation; inactive = no reads after selection
Recorded amyloid nucleation score by entry
Answer with a bare number; do not write a unit.

Below, each entry is followed by its recorded amyloid nucleation score result.
Q) Could you share which amyloid nucleation score value was measured for YIKGDQLVVVDTYMFRVKL ?
A) -0.991

Q) What value of amyloid nucleation score has been reported for the following sequence? FICQDVNICCSL
A) 7.3

Q) Name the reported amyloid nucleation score value associated with the sequence FMYTDPDSVPQGSDTTSLAL
A) -0.129

Q) Would you kindly share the measured amyloid nucleation score for HMSDNGLSSMKRVYVVYPTT ?
A) -0.049

Q) amyloid nucleation score lookup needed for LYSLGTSHEIPCLM , thanks.
A) 0.442

Next:
Q) Consider the sequence shown here: KCFRYCKKNSNWLDCRLQIW What is its recorded amyloid nucleation score?
A) -1.26

Q) Item CRHLFNWASWSTFTRIS has what recorded amyloid nucleation score?
A) 0.375

###

- procedureText: amyloid nucleation score (Sup35N fusion, yeast selection) (log enrichment); library NNK1; higher = more nucleation; inactive = no reads after selection
Classes by amyloid nucleation score: lowest: < -0.005; middle: ≥ -0.005 and < 0.7; highest: ≥ 0.7

Q) Hello team, could you let me know which band the following substance falls into: SGVLVGYHRDLDVDMNLNPM
A) lowest

Q) For the record RYNRLCTSLGRFKVVKSILS , report the class its amyloid nucleation score corresponds to.
A) middle

More entries:
Q) For TTCLTQNLDQGSLLYKVLPR , which amyloid nucleation score bin applies?
A) highest

Q) Class for AWNCHKFND ?
A) middle

Q) The entry to classify is KYYMSLDFWGHALH ; which class holds it?
A) highest

Q) Textbook exercise: identify the category of the substance given here, LFLKFGGSFAVIFWILVAAV , according to its measured value.
A) highest

Q) Which category does the recorded amyloid nucleation score put LCQGEKISPVKQHHVYCLGE in?
A) middle

Q) Textbook exercise: identify the category of the substance given here, VCKFNYL , according to its measured value.
A) lowest

Q) Which class does VHDVWEGFICGLPKYRGRLM fall in?
A) middle

Q) Which band does SGNTGPFRCARAADNSNFKG fall in?
A) lowest

###

- procedureText: amyloid nucleation score (Sup35N fusion, yeast selection) (log enrichment); library NNK2; higher = more nucleation; inactive = no reads after selection
metricName: amyloid nucleation score

// solved cases for amyloid nucleation score follow
Q) Requested field: amyloid nucleation score. Item: RWAFHCKSRDVFNMRKL
A) inactive

Q) Endpoint output: amyloid nucleation score of TNGLLNYCSRYTDLDNGSYR . Value?
A) inactive

Q) State the recorded amyloid nucleation score for this entry: NCPPFHRMYLTSIIGSLSDD
A) -0.306

Q) Recorded amyloid nucleation score of RILLLDLRYYCTTP , please.
A) inactive

Query sequence follows.
Q) Look up amyloid nucleation score for this sequence: EYMAITSFQKLFPHWFLSTE
A) inactive

###

- procedureText: amyloid nucleation score (Sup35N fusion, yeast selection) (log enrichment); library NNK1; higher = more nucleation; inactive = no reads after selection
Some substances, each annotated with its measured amyloid nucleation score.
Form: value (number only, do not type unit).

// worked examples, amyloid nucleation score included
Q) Query: amyloid nucleation score; subject: HQYVMFESLTYICLPLRDRL
A) 4.98

Q) Requested read-out: amyloid nucleation score. Entry: LPGFYDRKICKSLSMIYRLS
A) -0.405

Q) Please give the measured amyloid nucleation score for this substance: WESSAAVDTCTILKMTEKVG
A) 0.579

Q) For the substance LFGVFGFISVVSFSP , what amyloid nucleation score is on record?
A) -0.455

***
Q) amyloid nucleation score lookup needed for SCLPFLGYPFQDVGLIFLVA , thanks.
A) 0.749

Q) Returns the measured amyloid nucleation score for the input substance. Input: SHGRMCQLEYWSLRKGRGAG
A) 0.229

Q) Name the recorded amyloid nucleation score for GLTINNSI .
A) 0.588

Q) # query: amyloid nucleation score of entry VRSGDCYRSNSKSVFVMAIR
A) 0.617

Q) Request the reported amyloid nucleation score associated with TVGMRYFVWVKGSKTKREER
A) 0.674

Q) Which amyloid nucleation score is reported for this substance? HSIERTWPVRRPKCESKLKF
A) -0.91

Q) GET /values?readout=amyloid nucleation score&item= LSFAKGSVFITGDCISGTVD
A) -1.49

Q) Give the measured amyloid nucleation score of DKSNRTCNWQFNNICCL .
A) 8.39

Q) # input substance: SRGTGRARDAAA ; wanted: its amyloid nucleation score
A) -0.488

Q) Which amyloid nucleation score value is on record for LRVNGEKIKASLPFEGD ?
A) 0.197

Q) Quick one: amyloid nucleation score of RGDGTRNRRCAIFSN ?
A) -0.064

Q) Bench note: what amyloid nucleation score did GRYILGFE show?
A) 2.17
